tested on: MDA-MB-435 melanoma; experiment: NCI-60 one-dose screen, 48 h (100 = growth as untreated, 0 = no growth, -100 = all killed); details: 10 µM unless noted
This is part of a sample that, as a whole, favours compounds with a hit. Of some 83,000 tested, about 20% had one in any assay.
PROPERTY_MEASURED: growth (%)

>>> result_value("CCCCCCOC(=O)CC1=C(C)/C(=C/c2[nH]c(-c3ccc[nH]3)cc2OC)N=C1C")
-82.4
>>> result_value("COc1cccc(/C=C2\\COc3ccc(O)cc3C2=O)c1")
52.8
>>> result_value("COc1cc(/C=N/Nc2ccccc2F)cc(OC)c1OC")
94.3
>>> result_value("CN1CCN(Cc2ccc(NC(=O)c3cncc(C#Cc4cnn5ccccc45)c3)cc2C(F)(F)F)CC1")
6.02
>>> result_value("COc1ccc(OC)c(-c2cn3nc(-c4c[nH]c5ccc(Br)cc45)sc3n2)c1")
24
>>> result_value("COc1ccc2[nH]cc(-c3nc(-c4cn(C)c5ccncc45)cs3)c2c1")
64.7
>>> result_value("COc1cc(C2Cc3ncccc3-c3[nH]c(=O)c4cccnc4c32)cc(OC)c1OC (stereo unspecified)")
-50.3
>>> result_value("O=C(/C=C/c1ccccc1)Nc1ncc(Cc2ccccc2)s1")
-40.9
>>> result_value("Cc1nc2ccccc2c(/C=C/c2ccc(C(F)(F)F)cc2)c1C(=O)/C=C/c1ccccc1")
-39.2
>>> result_value("CC[C@H](Nc1nc(N)nc(C)c1C#N)c1nc2cccc(NCCCCCC(=O)NO)c2c(=O)n1-c1ccccc1")
64.1
>>> result_value("Cc1ccc(C)n1/C=C/n1c(C)ccc1C")
91.9
>>> result_value("CN(C)Cc1ccc(C(=O)Nc2ccc3ncnc(Nc4ccc(Oc5cccc(F)c5)c(Cl)c4)c3c2)cc1")
-89.4
>>> result_value("Cc1ccc(-c2nc(C(Cl)Cl)nc3cc(C)nn23)cc1")
12
>>> result_value("CN1CCN(C(=O)c2cc(-c3ccc4ncnc(N5CCc6cc(F)c(Cl)cc65)c4c3)cnc2N)CC1")
-2.06
>>> result_value("COc1ccc(Nc2ncc(C(N)=O)c(NCCCNC(=O)C3CCC3)n2)cc1")
84
>>> result_value("Fc1ccc(COc2ccc(Nc3ncnc4sc5c(c34)CCCC5)cc2)cc1")
96.1
>>> result_value("CS(=O)(=O)Cc1cnc(C2OCCO2)s1")
109
>>> result_value("NC(=O)OCCn1cc(-c2nc(-c3c[nH]c4ncccc34)cs2)c2ccccc21")
-33.4
>>> result_value("CN1CCN(CCCOc2ccc3ncnc(Nc4ccc(Oc5cccc(F)c5)c(Cl)c4)c3c2)CC1")
-84.8
>>> result_value("O=C(Nc1nc(C(=O)N2CCN(C(c3ccccc3)c3ccccc3)CC2)cs1)c1ccc(NC2CCCCC2)c([N+](=O)[O-])c1")
91
>>> result_value("COc1cc(C(=O)C(=O)c2cc(OC)c(O)c(OC)c2)cc(OC)c1O")
103

====

Test system: NCI-H23 lung
Assay: NCI-60 one-dose screen, 48 h
Details: 10 µM unless noted
Experimental: Growth inhibition of the NCI-H23 human Non-Small Cell Lung tumor cell line is measured as a screen for anti-cancer activity. Cells are grown in 96 well plates and exposed to the test compound for 48 hours. Compounds are tested at a single concentration, which is 10^-5 M for most compounds. The reported endpoint is percent growth (GI% or GIPRCNT), where numbers from 0 - 100% represent growth inhibition, and numbers from -100% - 0 represent cell death. […]
This is part of a sample that, as a whole, favours compounds with a hit. Of some 83,000 tested, about 20% had one in any assay. Calls of active or inactive are those of the source. The calls were made as follows: active = growth percent below 10; inactive = the rest.
Outcomes: active, inactive

>>> assigned_label("COC(=O)c1ccc2c(c1)c1c(C)c3ccncc3c(C)c1n2C")
"inactive"
>>> assigned_label("Cc1ccc(N=Nc2c(N)nn(-c3ccccc3)c2N)cc1")
"active"
>>> assigned_label("O=c1ccc2nc(C(F)(F)F)nn(-c3ccccc3)c-2c1")
"inactive"
>>> assigned_label("C#CCOc1ccc2ncnc(Nc3cccc(NC(=O)CCl)c3)c2c1")
"inactive"
>>> assigned_label("C#Cc1cccc(Oc2ccc(NC(=O)CCl)cc2)c1")
"inactive"
>>> assigned_label("COc1cccc(C(=O)OCC(O)C(=O)NC23CC4CC(CC(C4)C2)C3)c1 (configuration not stated)")
"inactive"
>>> assigned_label("COc1cc(C#Cc2ccc(=O)oc2C#Cc2ccccc2)cc(OC)c1OC")
"inactive"
>>> assigned_label("CCNc1nc(-c2ccc(F)cc2)c(C#N)c(=O)n1C")
"inactive"
>>> assigned_label("CCc1ccc(CCC(=O)Nc2ncc(Cc3ccc(Cl)cc3)s2)o1")
"inactive"
>>> assigned_label("C[Se]C(=O)CC1=C2C=C(F)C=CC2/C(=C\\c2ccc(S(C)=O)cc2)C1C (configuration not stated)")
"inactive"
>>> assigned_label("Cn1cc(-c2csc(-c3cn(C(=O)OC(C)(C)C)c4ccccc34)n2)c2ccnc(Cl)c21")
"inactive"
>>> assigned_label("Cn1ccnc1C(=O)/C=C/c1ccc(C(=O)Nc2ccc(F)cc2)cc1")
"inactive"
>>> assigned_label("O=C1CC2C=CCN2C=C1NC(=O)C1CCCCC1 (configuration not stated)")
"inactive"
>>> assigned_label("O=C(N/N=C/c1ccc(O)cc1O)c1ccc(Nc2ccnc(C(F)(F)F)c2)cc1")
"inactive"
>>> assigned_label("COc1ccc2c(c1)c(-c1nonc1-c1c[nH]c3ccc(Br)cc13)cn2C")
"inactive"
>>> assigned_label("O=C(CBr)CN1C(=O)c2ccccc2C1=O")
"inactive"
>>> assigned_label("Cc1c2cc[nH]c(=O)c2c(C)c2c1[nH]c1ccc(OC(=O)c3ccccc3)cc12")
"inactive"
>>> assigned_label("COc1ccc(NC(=O)c2sc3nc(C)c(C(O)c4ccccc4)cc3c2N)cc1 (configuration not stated)")
"inactive"
>>> assigned_label("C=C(C)[C@@H]1CC[C@]2(CO)CC[C@]3(C)[C@H](CC[C@@H]4[C@@]5(C)CCC(NCCc6ccc(O)cc6)C(C)(C)[C@@H]5CC[C@]43C)[C@@H]12 (some centres not stated)")
"active"
>>> assigned_label("COc1ccc(Cc2cnc(NC(=O)c3sc4ccccc4c3Cl)s2)cc1")
"inactive"
>>> assigned_label("CCCCC(=O)Nc1ncc(Cc2ccccc2Cl)s1")
"inactive"
>>> assigned_label("CN1CCN(Cc2ccc(NC(=O)c3cncc(C#Cc4cncc5ncccc45)c3)cc2C(F)(F)F)CC1")
"inactive"
